# tested_on: Hexose transporter 1 (Plasmodium falciparum)
# assay_summary: ST_JUDE_LEISH: Cytotoxicity at 2uM final concentration against transgenic Leishmania Mexicana promastigotes LmPfHT that are glucose transport deficient and complemented with the Plasmodium falciparum hexose transporter. Activity is measured by DNA content using SYBR green in vitro
# Type: functional
experimental_endpoint: inhibition (%)
Report the figure in % without appending any unit label.

// returns inhibition for CCCCCCNC(=O)C1Cc2c([nH]c3ccccc23)C2(CCN(CCc3ccccc3)CC2)N1 (centres undefined) with Hexose transporter 1 (Plasmodium falciparum); value = 0.47

Case O=S(=O)(Nc1ccc(CCN2CCC(N3CCCCC3)CC2)cc1)c1ccc(Cl)cc1 , Hexose transporter 1 (Plasmodium falciparum), inhibition recorded as 2.6

Fill in: Hexose transporter 1 (Plasmodium falciparum) inhibition for CN(C)C(=O)c1ccc(CN(Cc2cccc(OC(C)(C)C)c2)Cc2ccc3c(c2)OCCO3)cc1 = -0.56

# lookup: O=[N+]([O-])c1ccc(-c2ccc(C=NNc3nc(Nc4ccccc4)nc(Nc4ccccc4)n3)o2)cc1 on Hexose transporter 1 (Plasmodium falciparum), inhibition = -0.88

* * *

Would you mind telling me the reported inhibition of each entry?
# tested_on: Solute carrier family 2, facilitated glucose transporter member 1 (Homo sapiens)
# assay_summary: ST_JUDE_LEISH: Cytotoxicity at 2uM final concentration against transgenic Leishmania Mexicana promastigotes LmGLUT1 that are glucose transport deficient and complemented with the human glucose transporter GLUT1. Activity is measured by DNA content using SYBR green in vitro
# Assay type: functional
Reply numerically in %, unit not repeated.

Please fill in: inhibition reported for O=C(Nc1ccccc1)N(Cc1cccc(-c2cccc(CNCCc3ccccc3)c2)c1)C1CCN(Cc2ccccc2)CC1 = 7.12

Just so you know, measured inhibition for O=C(NCCc1ccccc1)N(Cc1cccc(-c2ccc(CNC3CCCC3)cc2)c1)C1CCN(Cc2ccccc2)CC1 came out at 13.9

// inhibition lookup, compound = O=C(Nc1ccccc1)Nc1cccc(-c2nn3c(OCCN4CCCC4)cccc3c2-c2ccncc2)c1 , result: 5.75

# compound Cc1cc(N[C@@H](Cc2ccccc2)C(=O)NCc2cccc(F)c2)nc(NCCc2ccccc2)n1 ; its inhibition = 5.82

Lab note: CC(=O)N/N=C/[C@H](CCc1ccccc1)NC(=O)[C@H](CC(C)C)NC(=O)c1ccc(OCCN2CCOCC2)cc1 gave inhibition of 2.92

GET /value?item= CC(C)(C)c1ccc(-c2cc(C(=O)N[C@@H](CO)C(=O)O)on2)cc1.CC(C)(C)c1ccc(-c2nocc2C(=O)N[C@@H](CO)C(=O)O)cc1 &field=inhibition returns 4.07

Short answer for CC(=O)Oc1cc(C)ccc1C1CCN(CCCCNC(=O)c2ccc(-c3ccc(C(F)(F)F)cc3)cc2)CC1 : inhibition was 1.9

For record CC[C@@H]([C@@H](Cc1cc2ccccc2s1)C(=O)N[C@@H](CCCCNC(=O)OCc1ccccc1)C(=O)Nc1ccccn1)N(O)C=O the listed inhibition is 5.52

Entry COc1cccc(NC(=O)NCCNc2ccnc(Nc3ccc(F)cc3)n2)c1 ; inhibition = 4.09

Notebook: CCCc1cc(OC)c(CC2c3cc(O)c(C)cc3CCN2C)cc1OC (configuration not stated) , inhibition read as -2.27

Recorded result, Cn1ccnc1CNC(=O)c1ccc(-c2cccc(-c3nc4cc(C(F)(F)F)ccc4[nH]3)c2)cc1 , inhibition: 1.73

Summary for this compound, Cc1cccc2nc(-c3ccc(-c4cccc(NC(=O)NCc5cccc(F)c5)c4)s3)[nH]c12 : inhibition is -1.66
